- experimentalSystem: UniProtKB P31213
- Sequence (P31213 whole entry): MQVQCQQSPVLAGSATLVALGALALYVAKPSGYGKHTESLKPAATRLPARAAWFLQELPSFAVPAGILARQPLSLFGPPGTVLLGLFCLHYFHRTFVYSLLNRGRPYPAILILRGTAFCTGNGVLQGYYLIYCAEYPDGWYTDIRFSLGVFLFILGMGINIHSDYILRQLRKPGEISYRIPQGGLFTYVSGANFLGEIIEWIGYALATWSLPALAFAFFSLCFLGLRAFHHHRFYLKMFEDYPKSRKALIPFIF
- experiment: Inhibitory concentration on human prostatic 5-alpha reductase 2 isozyme
pIC50: −log10 of the molar value.

compound: CC(C)NC(=O)N(C(=O)[C@H]1CCC2C3CCC4NC(=O)CC[C@]4(C)C3CC[C@@]21C)C(C)C (stereo not given in full)
experimentalSystem: UniProtKB P31213
pIC50: 6.42
//
compound: CC(C)NC(=O)N(C(=O)[C@H]1CCC2C3CCC4NC(=O)C=C[C@]4(C)C3CC[C@@]21C)C(C)C (stereo not given in full)
experimentalSystem: UniProtKB P31213
pIC50: 5.81
//
compound: CC(C)NC(=O)N(C(=O)[C@H]1CCC2C3CCC4N(C)C(=O)C=C[C@]4(C)C3CC[C@@]21C)C(C)C (stereo not given in full)
experimentalSystem: UniProtKB P31213
pIC50: 5.91
//
compound: CN1C(=O)CC[C@]2(C)C3CC[C@@]4(C)C(CC[C@@H]4C(=O)N(C(=O)NC4CCCCC4)C4CCCCC4)C3CCC12 (stereo not given in full)
experimentalSystem: UniProtKB P31213
pIC50: 7.39
//
compound: CN1C(=O)CC[C@]2(C)C3CC[C@@]4(C)C(CC[C@@H]4C(=O)N(C(=O)NC(C)(C)C)C(C)(C)C)C3CCC12 (stereo not given in full)
experimentalSystem: UniProtKB P31213
pIC50: 6.67

* * *

- experimentalSystem: Steroid 5-alpha-reductase (Rattus norvegicus, UniProt P24008+P31214)
- Sequence (P24008 whole entry): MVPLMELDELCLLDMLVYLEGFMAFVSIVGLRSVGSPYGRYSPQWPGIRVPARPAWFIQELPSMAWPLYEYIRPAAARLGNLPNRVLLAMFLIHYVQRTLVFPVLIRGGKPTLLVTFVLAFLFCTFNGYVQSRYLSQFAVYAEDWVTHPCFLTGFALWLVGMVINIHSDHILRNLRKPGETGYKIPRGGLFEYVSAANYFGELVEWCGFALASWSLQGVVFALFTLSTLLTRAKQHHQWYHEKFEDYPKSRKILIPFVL
- Sequence (P31214 whole entry): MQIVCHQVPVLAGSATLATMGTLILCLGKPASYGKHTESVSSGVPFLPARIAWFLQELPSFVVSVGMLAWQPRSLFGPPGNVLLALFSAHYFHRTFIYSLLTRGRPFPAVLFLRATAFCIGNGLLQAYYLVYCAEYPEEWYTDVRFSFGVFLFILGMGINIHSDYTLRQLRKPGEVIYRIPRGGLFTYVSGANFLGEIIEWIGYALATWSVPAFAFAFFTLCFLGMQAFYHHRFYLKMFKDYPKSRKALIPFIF
- experiment: Inhibition of rat 5-alpha reductase isozyme.
- Assay type: protein assay

molecule: CC(C)(C)NC(=O)[C@H]1CC[C@H]2[C@@H]3CC=C4C=C(C(=O)O)CC[C@]4(C)[C@H]3CC[C@]12C [EPRISTERIDE]
IC50 / nM: 50
--
molecule: CC(C)N(C(=O)[C@H]1CC[C@H]2[C@@H]3CC[C@H]4C(F)=C(C(=O)O)CC[C@]4(C)[C@H]3CC[C@]12C)C(C)C
IC50 / nM: 35
--
molecule: CC(C)Cc1ccc([C@H](C)Oc2ccc(C(=O)c3cn(CCCC(=O)O)c4ccccc34)cc2)cc1
IC50 / nM: 1
--
molecule: CC(C)Cc1ccc(C(Nc2cccc(C(=O)c3cn(CCCC(=O)O)c4ccccc34)c2)c2ccc(CC(C)C)cc2)cc1
IC50 / nM: 128
--
molecule: CC(C)N(C(=O)C1=CCC2C3CCC4=CC(C(=O)O)=CC[C@]4(C)C3CC[C@]12C)C(C)C (some centres undefined)
IC50 / nM: 47
--
molecule: CC1=C2C=C(C(=O)O)CC[C@]2(C)C2CC[C@@]3(C)C(CC[C@@H]3C(=O)c3cccc4ccccc34)C2C1 (some centres undefined)
IC50 / nM: 200
--
molecule: CC(C)Cc1ccc([C@]2(C)Oc3ccc(C(=O)c4cn(CCCC(=O)O)c5ccccc45)cc3O2)cc1
IC50 / nM: 9
--
molecule: CCCc1ccc(OC(C)c2ccc(C(=O)c3cn(CCCC(=O)O)c4ccccc34)cc2)cc1 (centres undefined)
IC50 / nM: 5
--
molecule: CCN(CC)C(=O)[C@H]1CC[C@H]2[C@@H]3CC[C@H]4N(C)C(=O)CC[C@]4(C)[C@H]3CC[C@]12C
IC50 / nM: 9.5
--
molecule: Cc1c(C(=O)c2ccc3c(c2)OC(c2ccc(Cl)cc2)(c2ccc(Cl)cc2)O3)c2ccccc2n1CCCC(=O)O
IC50 / nM: 588
--
molecule: CC1=C(C(=O)O)CC[C@@]2(C)C1=CCC1C2CC[C@@]2(C)C1CC[C@@H]2C(=O)N(C(C)C)C(C)C (some centres undefined)
IC50 / nM: 70
--
molecule: CC(C)Cc1ccc([C@@H](C)Oc2ccc(C(=O)c3cn(CCCC(=O)O)c4ccccc34)cc2)cc1
IC50 / nM: 30
--
molecule: CC(C)N(C(=O)[C@H]1CCC2C3C=CC4=CC(C(=O)O)=CC[C@]4(C)C3CC[C@@]21C)C(C)C (some centres undefined)
IC50 / nM: 300
--
molecule: CC(C)N(C(=O)[C@H]1CC[C@H]2[C@@H]3CCC4C=C(C(=O)O)CC[C@]4(C)[C@H]3CC[C@]12C)C(C)C (some centres undefined)
IC50 / nM: 70

* * *

- experimentalSystem: Adrenergic receptor alpha-1 (Homo sapiens, UniProt P35348+P25100+P35368)
- experiment: pA2 for Alpha-1 adrenergic receptor from human prostate.
- Assay type: tissue-based, Prostate gland
The following molecules are listed with their measured pA2 values.

lineNotation: COc1ccccc1N1CCN(CCCNc2c(C)c(=O)n(C)c(=O)n2C)CC1
pA2: 8.2
//
lineNotation: O=C(NC1CCN(CCc2c[nH]c3ccccc23)CC1)c1ccccc1
pA2: 8.7
//
lineNotation: Cc1c[nH]c(=O)n(CCCN2CCN(c3ccc(F)cc3OCC(F)(F)F)CC2)c1=O
pA2: 8.8
//
lineNotation: CC(C)(Cc1c[nH]c2ccc(Cl)cc12)NCCOc1ccccc1OCC1CC1
pA2: 7.3
//
lineNotation: C=Cc1sc2ccc(Cl)c3c2c1CN(C)CC3
pA2: 7.5
//
lineNotation: O=C(CCCN1CCC(NC(=O)c2ccccc2)CC1)c1ccccc1
pA2: 7.9
//
lineNotation: COc1ccc(Cl)cc1N1CCN(CCCNc2nccc(C(N)=O)n2)CC1
pA2: 8.6

* * *

- experiment: Binding affinity on human prostatic 5-alpha reductase isozyme
recordedEndpoint: Ki

compound: CC(C)N(C(=O)c1ccc(CCC2CCC(=O)N(C)C2)cc1)C(C)C (stereo unspecified)
recordedEndpoint: Ki
endpointResult: > 20 µM

* * *

- experiment: Inhibitory concentration on human 5-alpha reductase isozyme
pIC50: −log10 of the molar value.
The following compounds are listed with their measured pIC50 values.
recordedEndpoint: pIC50

compound: CC(C)N(C(=O)[C@H]1CCC2C3C=CC4=CC(C(=O)O)=CC[C@]4(C)C3CC[C@@]21C)C(C)C (some centres not stated)
endpointResult: 7.92

compound: CC(C)N(C(=O)[C@H]1CC[C@H]2[C@@H]3CCC4C=C(C(=O)O)CC[C@]4(C)[C@H]3CC[C@]12C)C(C)C (some centres not stated)
endpointResult: 7.52

compound: CC(C)N(C(=O)C1=CCC2C3CCC4=CC(C(=O)O)=CC[C@]4(C)C3CC[C@]12C)C(C)C (some centres not stated)
endpointResult: 8.15

compound: CC(C)N(C(=O)[C@H]1CC[C@H]2[C@@H]3CC[C@H]4C(F)=C(C(=O)O)CC[C@]4(C)[C@H]3CC[C@]12C)C(C)C
endpointResult: 7.59

compound: CC1=C(C(=O)O)CC[C@@]2(C)C1=CCC1C2CC[C@@]2(C)C1CC[C@@H]2C(=O)N(C(C)C)C(C)C (some centres not stated)
endpointResult: 7.46

compound: CC1=C2C=C(C(=O)O)CC[C@]2(C)C2CC[C@@]3(C)C(CC[C@@H]3C(=O)c3cccc4ccccc34)C2C1 (some centres not stated)
endpointResult: 6.77

compound: CC(C)(C)NC(=O)[C@H]1CC[C@H]2[C@@H]3CC=C4C=C(C(=O)O)CC[C@]4(C)[C@H]3CC[C@]12C [EPRISTERIDE]
endpointResult: 7.74

* * *

- experimentalSystem: Alpha-1A adrenergic receptor (Homo sapiens)
- Sequence (P35348 whole entry): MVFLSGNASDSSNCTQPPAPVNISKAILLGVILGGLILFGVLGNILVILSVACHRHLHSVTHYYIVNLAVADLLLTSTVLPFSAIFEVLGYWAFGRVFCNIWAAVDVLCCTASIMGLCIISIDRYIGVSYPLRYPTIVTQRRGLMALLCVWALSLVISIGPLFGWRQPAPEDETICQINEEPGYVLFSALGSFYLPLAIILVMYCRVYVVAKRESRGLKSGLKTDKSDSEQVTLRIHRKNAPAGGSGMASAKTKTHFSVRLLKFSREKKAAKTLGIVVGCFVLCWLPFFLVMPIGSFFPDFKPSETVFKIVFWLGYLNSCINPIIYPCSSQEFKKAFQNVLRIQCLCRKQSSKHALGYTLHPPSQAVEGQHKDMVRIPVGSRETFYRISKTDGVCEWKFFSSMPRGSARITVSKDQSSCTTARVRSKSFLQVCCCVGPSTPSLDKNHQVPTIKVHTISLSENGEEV
pKi: −log10 of the molar value.

compound: CC(C)(Cc1c[nH]c2ccc(Cl)cc12)NCCOc1ccccc1OCC1CC1
pKi: 9.20
//
compound: COc1ccc(Cl)cc1N1CCN(CCCNc2nccc(C(N)=O)n2)CC1
pKi: 8.60
//
compound: CCC1=C(C(=O)NCCCN2CCC(c3ccccc3)(c3ccccc3)CC2)C(c2ccc([N+](=O)[O-])cc2)/C(=C(\O)OC)C(C)=N1 (centres undefined)
pKi: 9.18
//
compound: COc1cccc(OC)c1OCCNCC1COc2ccccc2O1 (centres undefined)
pKi: 9.80

Numbers sourced from ChEMBL document CHEMBL1129998.
